assay-target: AHR (Homo sapiens, UniProt P35869)
condition-parameters: 20 h
pIC50: −log10 of the molar value.
measured-property: pIC50

## Input Answer with pIC50 of Cc1ccc(-c2cc(C(=O)NCC(O)C(F)(F)F)c(=O)n(-c3cc(F)cc(F)c3)n2)cc1 (single isomer, unassigned) measured for AHR (Homo sapiens, UniProt P35869).
## Output < 4.70

====

Examples of compounds with documented IC50 follow.
assay-target: AHR (Homo sapiens, UniProt P35869)
Sequence (P35869 11-848): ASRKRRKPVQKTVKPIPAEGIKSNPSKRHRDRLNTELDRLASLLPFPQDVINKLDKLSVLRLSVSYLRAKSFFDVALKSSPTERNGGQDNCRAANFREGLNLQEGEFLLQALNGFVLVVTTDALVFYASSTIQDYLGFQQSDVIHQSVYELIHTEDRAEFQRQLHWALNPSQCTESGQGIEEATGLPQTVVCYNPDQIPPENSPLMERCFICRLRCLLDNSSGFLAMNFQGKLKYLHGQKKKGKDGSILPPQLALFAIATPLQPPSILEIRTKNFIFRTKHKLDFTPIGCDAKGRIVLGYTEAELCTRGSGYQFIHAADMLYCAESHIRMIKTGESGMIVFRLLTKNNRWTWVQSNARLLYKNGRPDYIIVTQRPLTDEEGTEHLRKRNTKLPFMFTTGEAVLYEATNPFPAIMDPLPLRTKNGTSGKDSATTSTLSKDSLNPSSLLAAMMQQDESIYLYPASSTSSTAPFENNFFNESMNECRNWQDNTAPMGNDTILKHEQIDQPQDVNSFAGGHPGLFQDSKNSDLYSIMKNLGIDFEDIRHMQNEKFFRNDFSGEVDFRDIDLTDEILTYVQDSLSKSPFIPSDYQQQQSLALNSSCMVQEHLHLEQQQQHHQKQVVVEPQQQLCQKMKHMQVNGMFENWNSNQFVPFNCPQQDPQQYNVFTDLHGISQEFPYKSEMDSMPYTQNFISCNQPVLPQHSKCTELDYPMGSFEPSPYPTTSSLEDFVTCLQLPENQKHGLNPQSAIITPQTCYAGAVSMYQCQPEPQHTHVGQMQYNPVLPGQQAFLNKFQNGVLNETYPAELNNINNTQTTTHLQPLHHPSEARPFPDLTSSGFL
assay-text: In vitro assay 1: antagonism in human cell line (transactivation assay, kynurenic acid prestimulated)
condition-parameters: Assay 1: AHR-luc Hum Antagonism IC50 [M], 150 μM kynurenic acid, 20 hours, firefly luciferase
Write the value in M as a bare number.

Example compounds with recorded IC50:
O=C(N[C@H](CO)C1CCCC1)c1cc(-c2ccc(Cl)cc2)nn(-c2cccc(F)c2)c1=O    2.22e-07
CC(NC(=O)c1cc(-c2ccc(C(F)(F)F)cc2)nn(-c2cccc(F)c2)c1=O)C(O)C(F)(F)F (single isomer, unassigned) [Example 270]    6.12e-09

## Input Give IC50 for O=C(NC(CO)C1CC1)c1cc(-c2ccc(C(F)(F)F)cc2)nn(-c2cccc(F)c2)c1=O (single isomer, unassigned; (+)) [Example 352] tested on AHR (Homo sapiens, UniProt P35869).
## Output 1e-07

====

The reader will find reported IC50 values listed item by item below.
assay-target: UniProt:P35869
assay-text: In vitro assay 1: antagonism in human cell line (transactivation assay, kynurenic acid prestimulated)
condition-parameters: Assay 1: AHR-luc Hum Antagonism IC50 [M], 150 μM kynurenic acid, 20 hours, firefly luciferase

See these solved cases before continuing.
Cc1ccc(-c2cc(C(=O)NCCO)c(=O)n(-c3ccccc3)n2)cc1    2.1e-06 M
O=C(N[C@H]1C[C@@H](O)C1)c1cc(-c2ccc(Cl)cc2)nn(-c2cccc(F)c2)c1=O    4.67e-08 M
CC(NC(=O)c1cc(-c2ccc(C(F)(F)F)cc2)nn(-c2cccc(F)c2)c1=O)C(O)C(F)(F)F (single isomer, unassigned) [Example 271]    2.06e-08 M
Cc1ccc(-c2cc(C(=O)NCC(O)C(C)C)c(=O)n(-c3cccc(F)c3)n2)cc1 (single isomer, unassigned; enantiomer 1) [Example 11]    7.94e-08 M
COc1ccc(-c2cc(C(=O)NC(C)C(C)O)c(=O)n(-c3cccc(F)c3)n2)cc1 (centres unmarked)    5.02e-08 M

## Input Identify IC50 associated with the compound C[C@H](O)CCNC(=O)c1cc(-c2ccc(Cl)cc2)nn(-c2cccc(F)c2)c1=O
## Output 2.12e-07 M

## Input Please give measured IC50 of the following entry: CC(CCO)NC(=O)c1cc(-c2ccc(Cl)cc2)nn(-c2cccc(F)c2)c1=O (single isomer, unassigned; (-)) [Example 208]
## Output 2e-07 M

## Input Give IC50 for O=C(NCC(O)C1CCCC1)c1cc(-c2ccc(Cl)cc2)nn(-c2cccc(F)c2)c1=O (racemic)
## Output 1.19e-07 M

## Input Indicate its recorded IC50; the compound in question is O=C(NCCC1(O)CCCCC1)c1cc(-c2ccc(Cl)cc2)nn(-c2cccc(F)c2)c1=O
## Output 3.62e-07 M

## Input Please give measured IC50 of the following entry: O=C(NC(CO)C1CCCO1)c1cc(-c2ccc(C(F)(F)F)cc2)nn(-c2cccc(F)c2)c1=O (racemic) [Example 263]
## Output 3.54e-08 M
